method_summary: Urinary excretion (bioavailability) after intravenous, oral and nasal administration in the rat; drug in urine determined by muscarinic receptor binding assay
Format: in vivo, male Sprague-Dawley rats
setup_conditions: rat, urine, iv, 2 mg, intravenous, 2 mg/rat, hours 0-6, mean of 10 rats; read-out: amount of the compound found in the urine
endpoint: dose excreted at 6 h (%)
Kindly answer with a numeric value in %, unit omitted.

Provide measured dose excreted at 6 h value, entry: C[N+]1(CC2CC2)C2CC(OC(=O)C(CO)c3ccccc3)CC1C1OC12 (stereo not shown) [N-cyclopropylmethylscopolamine bromide]
23.2

* * *

method_summary: Urinary excretion (bioavailability) after intravenous, oral and nasal administration in the rat; drug in urine determined by muscarinic receptor binding assay
Assay type: in vivo, male Sprague-Dawley rats
setup_conditions: rat, urine, iv, 2 mg, intravenous, 2 mg/rat, hours 0-24, individual rats; read-out: amount of the compound found in the urine
Description: As a representative drug of this class of compounds N-cyclopropylmethylscopolamine bromide was employed in the method and in the compositions according to the present invention. The bioavailability of this compound after administration by nasal and oral route has been examined and then compared by the following general method. […] 6, 12 and 24 hours after administration the quantitative excretion into the urine for any of the routes of administration was studied. […]
endpoint: dose excreted at 24 h (%)
Kindly answer with a numeric value in %, unit omitted.

Provide measured dose excreted at 24 h value, entry: C[N+]1(CC2CC2)C2CC(OC(=O)C(CO)c3ccccc3)CC1C1OC12 (stereo not shown) [N-cyclopropylmethylscopolamine bromide]
31

* * *

method_summary: Urinary excretion (bioavailability) after intravenous, oral and nasal administration in the rat; drug in urine determined by muscarinic receptor binding assay
Assay type: in vivo, male Sprague-Dawley rats
setup_conditions: rat, urine, iv, 2 mg, intravenous, 2 mg/rat, hours 12-24, mean of 10 rats; read-out: amount of the compound found in the urine
endpoint: dose excreted at 24 h (%)
Kindly answer with a numeric value in %, unit omitted.

Provide measured dose excreted at 24 h value, entry: C[N+]1(CC2CC2)C2CC(OC(=O)C(CO)c3ccccc3)CC1C1OC12 (stereo not shown) [N-cyclopropylmethylscopolamine bromide]
0.94

* * *

method_summary: Urinary excretion (bioavailability) after intravenous, oral and nasal administration in the rat; drug in urine determined by muscarinic receptor binding assay
Format: in vivo, male Sprague-Dawley rats
setup_conditions: rat, urine, po, 2 mg, oral, 2 mg/rat, hours 12-24, mean of 10 rats; read-out: amount of the compound found in the urine
endpoint: dose excreted at 24 h (%)
Kindly answer with a numeric value in %, unit omitted.

Provide measured dose excreted at 24 h value, entry: C[N+]1(CC2CC2)C2CC(OC(=O)C(CO)c3ccccc3)CC1C1OC12 (stereo not shown) [N-cyclopropylmethylscopolamine bromide]
0.02

* * *

method_summary: Urinary excretion (bioavailability) after intravenous, oral and nasal administration in the rat; drug in urine determined by muscarinic receptor binding assay
Assay type: in vivo, male Sprague-Dawley rats
setup_conditions: urine, 2 mg; after oral administration, rat; read-out: bioavailability
Experimental: As a representative drug of this class of compounds N-cyclopropylmethylscopolamine bromide was employed in the method and in the compositions according to the present invention. The bioavailability of this compound after administration by nasal and oral route has been examined and then compared by the following general method. […] 6, 12 and 24 hours after administration the quantitative excretion into the urine for any of the routes of administration was studied. […]
endpoint: bioavailability (%)
Kindly answer with a numeric value in %, unit omitted.

Provide measured bioavailability value, entry: C[N+]1(CC2CC2)C2CC(OC(=O)C(CO)c3ccccc3)CC1C1OC12 (stereo not shown) [N-cyclopropylmethylscopolamine bromide]
1.4
